test readout: melting point

Consider the worked cases shown below.
compound: Cc1cc(C)c(C(C)(C#N)c2nc(C)nc(Cl)c2C)c(C)c1 (stereo unspecified)
observed result: 181 to 183 °C

compound: CNC(=O)c1ccccc1-c1cc(C)no1
observed result: 120 to 122 °C

compound: CC1(C)OC(=O)N[C@H]1Cc1ccccc1
observed result: 59 °C

compound: Cc1ccc2c(c1)oc1c(C(=O)NC3C4CC5CC(C4)CC3C5)nn(-c3ccc(Cl)cc3Cl)c12 (stereo unspecified)
observed result: 209 to 211 °C

compound: Cc1ccc(Oc2ccc(OC(=O)NC(C)CCCC(C)C)cc2)cc1 (stereo unspecified)
observed result: 45 to 47 °C

Next compound, melting point to be filled in.
Which melting point reading was recorded for the compound CC12CCC3C(CC=C4CCCCC43C)C1CC=C2Br (stereo unspecified) ?
109 to 113 °C

====

Catalogue of compounds with associated melting point

// below: answered compounds
compound: Cc1cccc(C)c1NNC(=O)OCCCl
melting point: 74 to 75 °C

compound: CCCCN(CCCC)CCCOc1ccc(S(=O)(=O)c2ccccc2C(C)C)cc1
melting point: 88 °C

compound: CCCCCCCCCCCc1nc2c(O)c(Cl)c(C)c(Cl)c2cc1CCCCCCCCCC
melting point: 54.5 to 56 °C

// melting point lookup, key: CC(C)c1c(C=CC2CC(O)CC(O)O2)n(C2CCCCC2)c(=O)c2ccccc12 (mixture of isomers)
141 to 142 °C

Look up melting point: O=c1ccc(N2CCC(CCCO)CC2)n[nH]1
174 °C

====

Listed here: items and their measured melting point.

Examples from the recorded data:
compound: O=[N+]([O-])c1ccc(N2CCSCC2)cc1
test readout: melting point
observed result: 142 to 144 °C
--
compound: CC(C)(CNC(=O)C(O)CO)c1ccc(C(=O)Nc2cn3cc(Cl)ccc3n2)cc1 (centres undefined)
test readout: melting point
observed result: 228 to 229 °C
--
compound: Cc1ccc2c(CCN)c[nH]c2c1C
test readout: melting point
observed result: 171 to 173 °C
--
compound: CCOC(=O)c1cn(Cc2ccccc2)nc1OCc1ccc(OCc2nc(-c3ccco3)oc2C)nc1
test readout: melting point
observed result: 140 to 141 °C
--
compound: CNc1cc(Br)cc(S(=O)(=O)c2ccccc2)c1
test readout: melting point
observed result: 143 to 145 °C
--
compound: CC(C)(C)c1cc(C(=O)COc2ccc(C(=O)OCc3ccccc3)c(O)c2)ccc1OCc1ccccc1
test readout: melting point
observed result: 91 to 93 °C

State the recorded melting point for this entry: CC(C)(C)OC(=O)NCCNC(=O)c1nocc1-c1ccccc1
170 to 171 °C

melting point for Cc1ccc(/C=C/C2=CCN(Cc3c[nH]c4ncccc34)CC2)cc1 ?
209 to 212 °C

Data request, read-out melting point, for C[C@H](NC(=O)CS)C(=O)N1CCC[C@H]1C(=O)O
152 to 155 °C

# input compound: O=C(O)C(=O)c1c(F)c(F)c(OCCOc2ccc3ccccc3c2)c(F)c1F ; wanted: its melting point
146 to 148 °C

Tell me the measured melting point of CCc1ccccc1NS(=O)(=O)c1cc(S(=O)(=O)Nc2ccccc2CC)c2cc(O)ccc2c1 , please.
127 to 129 °C

Which melting point reading was recorded for the compound CCC(=O)C1=C(O)CC(c2c(C)c([N+](=O)[O-])c(C)c([N+](=O)[O-])c2C)CC1=O (centres undefined) ?
249 °C

Requested field: melting point. Item: CCOC(=O)C(C)c1ccc2oc(C(=O)c3ccc(Cl)cc3)nc2c1 (centres undefined)
66 to 67 °C

Looking for the measured melting point of COc1cc2nc(-c3n[nH]cc3NC(=O)N3CCCCC3)[nH]c2cc1Cl , can you help?
> 310 °C

Item Cc1nc2nc(SCc3ccccc3)nn2c(C)c1Cl has what recorded melting point?
164 to 166 °C

// returns reported melting point for input Cc1cc(OCC2(O)CCS(=O)(=O)CC2)cc(C)c1-c1cccc(CNc2ccc(CCC(=O)O)c(F)c2)c1
178 °C

Quick one: melting point of CN(c1nnc(C(F)(F)F)s1)C1CCN(Cc2ccc(F)cc2)CC1 ?
85.8 °C

Requested field: melting point. Item: CN1CCN(c2ccc(Nc3cc(-c4cccc(-n5ncc6cc(C(C)(C)C)cc(F)c6c5=O)c4CO)nn(C)c3=O)nc2)CC1
260 to 264 °C

Using the record for O=C(Nc1ccc2scnc2c1C1CCN(C/C=C/c2ccc(Cl)cc2)CC1)c1ccnc(Cl)c1 , report its melting point.
99 to 103 °C

====

This listing pairs compounds with measured melting point.

compound: CN(C(=S)N[C@@H](Cc1ccc(NC(=O)c2c(Cl)cncc2Cl)cc1)C(=O)O)c1ccccc1Cc1ccccc1
test readout: melting point
observed result: 198 °C

compound: CC(C)(C)c1cc(-c2nn(Cc3cccc(C(F)(F)F)c3)c3ncccc23)cc(C(C)(C)C)c1O
test readout: melting point
observed result: 160 to 163 °C

compound: CC(C)(C)NS(=O)(=O)c1ccccc1-c1ccccn1
test readout: melting point
observed result: 147 to 150 °C

compound: C=CCOc1ccc2c(C)cc(=O)oc2c1C(=O)C=Cc1ccc(Cl)cc1
test readout: melting point
observed result: 153 to 155 °C

compound: Cc1cc(OCc2c(-c3c(Cl)cccc3Cl)noc2C(C)C)cnc1NC(=O)c1ccc(C(=O)O)cc1
test readout: melting point
observed result: 218 °C

compound: COc1ccc(C=CC=Cc2ccccc2)cc1
test readout: melting point
observed result: 160 to 162 °C

compound: CC1(C)CCC(C)(C)c2cc3cc(-c4c[nH]c(C(=O)O)c4)ccc3cc21
test readout: melting point
observed result: 234 to 238 °C

compound: O=C(O)c1cn(C2CC2)c2cc(N3CCC4(C3)OCCO4)c(F)cc2c1=O
test readout: melting point
observed result: 229 to 230 °C

compound: O=C(NCc1ccn(-c2cc3[nH]c(=O)c(=O)[nH]c3cc2[N+](=O)[O-])c1)NC1CCN(Cc2ccccc2)CC1
test readout: melting point
observed result: 234 to 237 °C

compound: CC(C)c1cc(-c2ccc3c(c2)OCO3)[nH]c(=O)c1C#N
test readout: melting point
observed result: 266 to 268 °C

# lookup: melting point of O=C(NC12CC3CC(CC(C3)C1)C2)c1ncon1
141 to 142 °C

GET /values?readout=melting point&item= OC1C2CCN(CC2)C1C#Cc1ccc(-c2cccnc2)cc1 (stereo unspecified)
189 to 190 °C

What value of measured melting point is listed for CC(C)(C)OC(=O)N1C[C@H](O)C[C@H]1C(N)=O ?
146 to 148 °C

# melting point lookup, item CSc1ncc(O)c(O)n1
213 to 215 °C

Dear colleague, I am looking for the recorded melting point of the following compound: CCCCCC(CC(=O)Nc1cc(C(=O)O)ccc1C(C)(C)C)c1ccc(C(=O)CC)cc1OC (stereo unspecified)
197 to 199 °C

If you can, please state the reported melting point value of Cc1ccc(C(=O)c2ccc(F)cc2)s1 .
68 °C

melting point for CC(C)(C)C(O)c1ccc(C(=O)c2ccccc2)cc1 (stereo unspecified) ?
103 to 105 °C

====

Quick reference for melting point among some molecules

Sample records with melting point:
molecule: CC(CC(=O)NC(=O)OC(C)(C)C)Nc1ccccc1 (stereo unspecified)
test readout: melting point
observed result: 117 to 118 °C
//
molecule: Cc1c(Cl)ccc(C(=O)O)c1Cl
test readout: melting point
observed result: 173 to 175 °C
//
molecule: Cc1ccc2c(N)c(Cl)ccc2n1
test readout: melting point
observed result: 196 to 197 °C

Now consider the entry below.
Recorded melting point of O=C(NOC(=O)C(F)(F)F)C(F)(F)F , please.
40 to 50 °C

====

Reported values of melting point for individual entries

Record excerpt, results attached:
molecule: CCN1c2ncc(CCc3cccc(C)c3)cc2C(=O)N(C)c2cccnc21
melting point: 103 to 104 °C

molecule: O=c1ccn([C@@H]2C(F)=C(CCO)[C@@H](O)[C@H]2O)c(=O)[nH]1
melting point: 166 to 167 °C

molecule: NC(=O)C1CCN(Cc2cnc3cc(NC(=O)c4ccc(-c5ccc(F)cc5)cc4)ccc3c2)CC1
melting point: 261 to 265 °C

// query melting point value for entry C[C@@H]1CN(C(=O)[C@@](C)(O)C(F)(F)F)[C@@H](C)CN1S(=O)(=O)c1ccc(F)cc1
174 to 175 °C

melting point for COc1cccc(CCc2c(CC#N)ccc(OC)c2OC)c1 ?
98 to 100 °C

Which melting point reading was recorded for the molecule O=c1oc2ccccc2n2cnc(-c3noc(C4CC4)n3)c12 ?
234 to 236 °C

====

# melting point annotations

compound: O=C(CCc1ccccc1)c1cccnc1Oc1ccc(F)cc1
melting point: 82 to 83 °C
--
compound: CCc1cc2c(s1)-n1nc(C(N)=O)nc1C(OC(C)=O)N=C2c1ccccc1Cl (stereo not given)
melting point: 168 to 170 °C
--
compound: CCCCn1c(C)c(C)cc(NC(=O)c2ccc(F)cc2)c1=O
melting point: 129 to 130 °C

// melting point lookup, key: N#Cc1cnc(Nc2ccc(OCCn3cnnc3)cc2)nc1-c1cccs1
228 °C

Given COC(=O)CCc1cc2c(Cl)c(Cl)ccc2n1S(=O)(=O)c1ccccc1 , state its recorded melting point.
142 °C

Field request: melting point | item: C=CCN(c1ccccc1CC(=O)N(C)C)c1c(Cl)cccc1Cl
110 to 114 °C

Quick one: melting point for COC(=O)c1cc(CC(C)NCC(O)c2ccc(O)c(CO)c2)ccc1O (stereo not given) ?
65 to 69 °C

Look at this compound and give its reported melting point. COC(=O)c1ccc(C(O)(c2ccc3[nH]c(=O)cc(-c4cccc(Cl)c4)c3c2)c2cncn2C)cc1 (stereo not given)
255 °C

Look up melting point for this compound: CC1CC(NC=O)=NN1c1ccc(Cl)cc1 (stereo not given)
112 to 113 °C
